Tested on: S. pneumoniae ATCC 27336
Type: cell-based, Streptococcus pneumoniae
conditionSummary: Table 11
No end group written: not given here.

substance | unitOfMeasurement | S. pneumonia ATCC 27336 MLC
R13A:T14A: core peptide mutant of mutacin 1140, positions 13, 14 replaced by Alanine and Alanine (FKSWSLCTPGCAAAGSFNSYCC; UniProt O68586 42-63, looked up, variant R13A T14A) | micrograms per milliliter | 2
A12T:T14G: core peptide mutant of mutacin 1140, positions 12, 14 replaced by Threonine and Glycine (FKSWSLCTPGCTRGGSFNSYCC; ends and bridges not checked; cysteine pairing not given here; UniProt O68586 42-63, looked up, variant A12T T14G) | micrograms per milliliter | 2
S5A:A12S un-dehydrated: core peptide mutant of mutacin 1140, positions 5, 12 replaced by Alanine and Serine; un-dehydrated form (FKSWALCTPGCSRTGSFNSYCC; ends and bridges not checked; cysteine pairing not given here; UniProt O68586 42-63, looked up, variant S5A A12S) | micrograms per milliliter | 0.125
S5G:T14G: core peptide mutant of mutacin 1140, positions 5, 14 replaced by Glycine and Glycine (FKSWGLCTPGCARGGSFNSYCC; ends and bridges not checked; cysteine pairing not given here; UniProt O68586 42-63, looked up, variant S5G T14G) | micrograms per milliliter | 2
T14A: core peptide mutant of mutacin 1140, Threonine 14 replaced by Alanine (FKSWSLCTPGCARAGSFNSYCC; UniProt O68586 42-63, looked up, variant T14A) [Mutant T14A] | micrograms per milliliter | 0.5
G15A*: core peptide mutant of mutacin 1140, Glycine 15 replaced by Alanine (FKSWSLCTPGCARTASFNSYCC; ends and bridges not checked; cysteine pairing not given here; UniProt O68586 42-63, looked up, variant G15A) | micrograms per milliliter | 0.5
S5T: core peptide mutant of mutacin 1140, Serine 5 replaced by Threonine (FKSWTLCTPGCARTGSFNSYCC; UniProt O68586 42-63, looked up, variant S5T) [Mutant S5T] | micrograms per milliliter | 2
